- tgt: HiBiT-BRM (Homo sapiens, UniProt P51531)
- Construct: expressed in transfected cells
- Sequence (P51531 whole entry): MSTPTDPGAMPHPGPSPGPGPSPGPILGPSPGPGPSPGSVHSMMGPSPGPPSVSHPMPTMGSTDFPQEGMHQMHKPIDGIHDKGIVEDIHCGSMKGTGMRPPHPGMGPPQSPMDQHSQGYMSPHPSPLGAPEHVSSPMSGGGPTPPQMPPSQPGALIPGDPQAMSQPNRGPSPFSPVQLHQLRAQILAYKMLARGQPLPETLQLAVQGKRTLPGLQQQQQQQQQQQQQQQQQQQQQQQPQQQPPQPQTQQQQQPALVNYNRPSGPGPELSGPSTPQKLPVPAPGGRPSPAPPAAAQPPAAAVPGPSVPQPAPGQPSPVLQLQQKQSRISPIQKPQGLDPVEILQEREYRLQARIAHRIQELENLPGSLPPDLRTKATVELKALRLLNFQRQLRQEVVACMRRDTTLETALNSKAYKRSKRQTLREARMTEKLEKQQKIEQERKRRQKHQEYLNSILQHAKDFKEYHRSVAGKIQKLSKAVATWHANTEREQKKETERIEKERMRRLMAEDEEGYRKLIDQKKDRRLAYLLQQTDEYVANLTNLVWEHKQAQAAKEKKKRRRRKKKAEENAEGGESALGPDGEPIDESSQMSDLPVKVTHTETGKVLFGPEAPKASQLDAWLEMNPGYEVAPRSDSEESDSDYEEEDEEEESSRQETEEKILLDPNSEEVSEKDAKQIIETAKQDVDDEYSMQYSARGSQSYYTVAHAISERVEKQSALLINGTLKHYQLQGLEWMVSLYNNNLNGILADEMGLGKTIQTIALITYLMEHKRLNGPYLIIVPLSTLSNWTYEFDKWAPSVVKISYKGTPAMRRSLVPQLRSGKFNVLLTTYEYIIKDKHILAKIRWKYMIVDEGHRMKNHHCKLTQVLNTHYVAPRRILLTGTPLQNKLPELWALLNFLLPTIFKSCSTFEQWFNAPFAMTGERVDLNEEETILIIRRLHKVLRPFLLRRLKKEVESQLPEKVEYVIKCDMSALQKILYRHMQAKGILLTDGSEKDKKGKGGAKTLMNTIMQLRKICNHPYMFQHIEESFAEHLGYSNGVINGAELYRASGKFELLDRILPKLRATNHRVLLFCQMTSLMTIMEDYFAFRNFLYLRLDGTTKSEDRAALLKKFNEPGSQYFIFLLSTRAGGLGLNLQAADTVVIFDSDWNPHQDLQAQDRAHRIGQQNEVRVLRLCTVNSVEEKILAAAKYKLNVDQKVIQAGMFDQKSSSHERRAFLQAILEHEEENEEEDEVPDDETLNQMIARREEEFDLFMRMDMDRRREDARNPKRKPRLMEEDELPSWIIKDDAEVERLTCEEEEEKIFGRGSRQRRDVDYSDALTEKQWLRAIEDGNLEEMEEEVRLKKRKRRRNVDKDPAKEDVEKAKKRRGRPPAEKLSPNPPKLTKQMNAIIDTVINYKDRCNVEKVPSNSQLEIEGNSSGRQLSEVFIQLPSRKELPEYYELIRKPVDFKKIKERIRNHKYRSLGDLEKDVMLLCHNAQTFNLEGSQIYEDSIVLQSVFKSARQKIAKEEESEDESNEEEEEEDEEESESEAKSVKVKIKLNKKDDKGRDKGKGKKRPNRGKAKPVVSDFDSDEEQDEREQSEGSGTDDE
- measurement.description: HiBiT-BRM cell-based degradation assay (Nano-Glo HiBiT Lytic Detection)
- conditions.used: HeLa cells expressing HiBiT-BRM, 24 h; read-out: BRM HiBit Degradation IC50
Recorded DC50 for the following compounds

Nc1nnc(-c2ccccc2O)cc1OCCc1ccc(CNC(=O)C2CCN(CCOc3ccc4c(c3)C(=O)N(C3CCC(=O)NC3=O)C4=O)CC2)cc1 (centres unmarked) [Compound 19]: > 1 µM

Exam item: Which DC50 value belongs to Nc1nnc(-c2ccccc2O)cc1OCCc1ccc(CNCCCCCNc2ccc3c(c2)C(=O)N(C2CCC(=O)NC2=O)C3=O)cc1 (centres unmarked) [Compound 117] ?
Marked response: > 1 µM

Exam item: Which DC50 value belongs to Nc1nnc(-c2ccccc2O)cc1OCCc1ccc(C(=O)NCCCCCNc2ccc3c(c2)C(=O)N(C2CCC(=O)NC2=O)C3=O)cc1 (centres unmarked) [Compound 51] ?
Marked response: > 1 µM

Exam item: Which DC50 value belongs to Nc1nnc(-c2ccccc2O)cc1OCCc1ccc(CN2CCN(CCOc3cccc4c3C(=O)N(C3CCC(=O)NC3=O)C4=O)CC2)cc1 (centres unmarked) [Compound 126] ?
Marked response: > 1 µM

Exam item: Which DC50 value belongs to Nc1nnc(-c2ccccc2O)cc1N1CCN(CCNC(=O)CCCCCCCCCCNc2cccc3c2C(=O)N(C2CCC(=O)NC2=O)C3=O)CC1 (centres unmarked) [Compound 88] ?
Marked response: > 1 µM

Exam item: Which DC50 value belongs to Cc1ncsc1-c1ccc(CNC(=O)[C@@H]2C[C@@H](O)CN2C(=O)[C@@H](NC(=O)COCCOCC(=O)NCc2ccc(CCOc3cc(-c4ccccc4O)nnc3N)cc2)C(C)(C)C)cc1 [Compound 164] ?
Marked response: > 1 µM

* * *

Recorded DC50 for the following molecules
- tgt: HiBit-BRG1 (Homo sapiens, UniProt P51532)
- Construct: expressed in transfected cells
- Sequence (P51532 whole entry): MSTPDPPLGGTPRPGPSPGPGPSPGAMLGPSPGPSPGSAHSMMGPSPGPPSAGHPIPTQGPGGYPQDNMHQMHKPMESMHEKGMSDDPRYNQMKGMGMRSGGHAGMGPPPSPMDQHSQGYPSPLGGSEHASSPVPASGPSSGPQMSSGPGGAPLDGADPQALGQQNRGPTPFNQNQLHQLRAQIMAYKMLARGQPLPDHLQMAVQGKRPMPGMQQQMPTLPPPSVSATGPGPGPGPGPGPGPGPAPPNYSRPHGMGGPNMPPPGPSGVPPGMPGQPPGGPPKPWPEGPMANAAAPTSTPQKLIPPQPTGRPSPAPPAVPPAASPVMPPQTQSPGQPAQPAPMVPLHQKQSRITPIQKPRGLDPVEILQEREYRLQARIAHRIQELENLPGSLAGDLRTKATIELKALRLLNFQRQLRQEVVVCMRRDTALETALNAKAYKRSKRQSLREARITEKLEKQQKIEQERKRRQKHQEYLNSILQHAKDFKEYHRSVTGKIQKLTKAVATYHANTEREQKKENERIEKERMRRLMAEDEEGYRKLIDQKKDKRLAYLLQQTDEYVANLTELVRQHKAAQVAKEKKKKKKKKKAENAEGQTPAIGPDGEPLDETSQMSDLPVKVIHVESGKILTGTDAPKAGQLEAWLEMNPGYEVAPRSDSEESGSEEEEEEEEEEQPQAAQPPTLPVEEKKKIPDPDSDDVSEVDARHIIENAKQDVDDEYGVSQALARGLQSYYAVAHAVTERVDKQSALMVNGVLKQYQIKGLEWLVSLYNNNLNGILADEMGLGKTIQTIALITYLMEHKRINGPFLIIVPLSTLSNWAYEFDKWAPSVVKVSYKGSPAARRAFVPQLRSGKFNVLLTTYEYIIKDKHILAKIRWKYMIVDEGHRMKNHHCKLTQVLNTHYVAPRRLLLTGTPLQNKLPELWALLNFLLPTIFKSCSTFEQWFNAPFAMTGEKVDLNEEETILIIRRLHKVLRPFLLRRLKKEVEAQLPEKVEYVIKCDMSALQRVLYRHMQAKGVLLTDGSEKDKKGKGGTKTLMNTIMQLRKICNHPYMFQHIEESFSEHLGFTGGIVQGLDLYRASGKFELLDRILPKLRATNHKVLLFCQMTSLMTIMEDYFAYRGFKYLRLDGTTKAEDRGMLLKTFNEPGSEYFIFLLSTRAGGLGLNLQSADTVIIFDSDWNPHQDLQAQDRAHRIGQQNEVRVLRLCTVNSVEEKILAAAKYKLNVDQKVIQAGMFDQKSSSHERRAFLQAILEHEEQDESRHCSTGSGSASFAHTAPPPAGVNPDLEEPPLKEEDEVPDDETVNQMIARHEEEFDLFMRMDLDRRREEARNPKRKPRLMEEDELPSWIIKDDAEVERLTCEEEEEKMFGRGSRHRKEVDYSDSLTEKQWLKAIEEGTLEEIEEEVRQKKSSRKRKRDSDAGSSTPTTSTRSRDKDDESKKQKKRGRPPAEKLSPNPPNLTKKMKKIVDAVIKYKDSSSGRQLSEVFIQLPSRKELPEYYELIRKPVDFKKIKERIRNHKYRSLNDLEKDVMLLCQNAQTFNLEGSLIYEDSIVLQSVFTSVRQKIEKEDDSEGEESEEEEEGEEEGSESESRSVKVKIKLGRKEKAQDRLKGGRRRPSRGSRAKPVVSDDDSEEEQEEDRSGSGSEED
- measurement.description: HiBit-BRG1 cell-based degradation assay (Nano-Glo HiBiT Lytic Detection)
- conditions.used: HeLa cells expressing HiBit-BRG1 and LgBit, 24 h; read-out: BRG1 HiBit Degradation IC50

Study these solved cases before continuing.
Cc1ncsc1-c1ccc(CNC(=O)[C@@H]2C[C@@H](O)CN2C(=O)[C@@H](NC(=O)CN2CCN(CCOc3cc(N4[C@@H]5CC[C@H]4CN(c4cc(-c6ccccc6O)nnc4N)C5)ccn3)CC2)C(C)(C)C)cc1: > 100 nM
Nc1nnc(-c2ccccc2O)cc1OCCc1ccc(CNC(=O)CCNc2cccc3nnn(C4CCC(=O)NC4=O)c(=O)c23)cc1 (centres unmarked): > 1000 nM

Exam item: Which DC50 value belongs to Cc1ncsc1-c1ccc(CNC(=O)[C@@H]2C[C@@H](O)CN2C(=O)[C@@H](NC(=O)CCCCCCCCCNCc2ccc(CCNc3cc(-c4ccccc4O)nnc3N)cc2)C(C)(C)C)cc1 ?
Marked response: > 1000 nM

Exam item: Which DC50 value belongs to Cc1ncsc1-c1ccc([C@H](C)NC(=O)[C@@H]2C[C@@H](O)CN2C(=O)[C@@H](NC(=O)CCCCCCCCCC(=O)NCc2ccc(CCOc3cc(-c4ccccc4O)nnc3N)cc2)C(C)(C)C)cc1 ?
Marked response: > 1000 nM

Exam item: Which DC50 value belongs to Nc1nnc(-c2ccccc2O)cc1N1CCN(CC(=O)NCCCCCCCCNc2cccc3c2C(=O)N(C2CCC(=O)NC2=O)C3=O)CC1 (centres unmarked) ?
Marked response: > 1000 nM

* * *

- tgt: HiBit-BRG1 (Homo sapiens)
- Construct: expressed in transfected cells
- measurement.description: HiBit-BRG1 cell-based degradation assay (Nano-Glo HiBiT Lytic Detection)
- conditions.used: HeLa cells expressing HiBit-BRG1 and LgBit, 24 h; read-out: BRG1 HiBit Degradation IC50
Where a name gives a salt, the structure may show the parent alone.
property.label: DC50

Study these solved cases before continuing.
Cc1ncsc1-c1ccc([C@H](C)NC(=O)[C@@H]2C[C@@H](O)CN2C(=O)[C@@H](c2cc(OCCN3CC(OC4CCN(C(=O)c5ccc(CCOc6cc(-c7ccccc7O)nnc6N)cc5)CC4)C3)no2)C(C)C)cc1: > 100 nM
Cc1ncsc1-c1ccc(CNC(=O)[C@@H]2C[C@@H](O)CN2C(=O)[C@@H](NC(=O)CCCCCCCCCNC(=O)c2ccc(CCN(C)c3cc(-c4ccccc4O)nnc3N)cc2)C(C)(C)C)cc1: > 100 nM
Nc1nnc(-c2cc(F)ccc2O)cc1OCCc1ccc(CNCCCCCOc2cccc3c2C(=O)N(C2CCC(=O)NC2=O)C3=O)cc1 (centres unmarked) [Compound 118, formic acid salt]: > 1000 nM
Cc1ncsc1-c1ccc(CNC(=O)[C@@H]2C[C@@H](O)CN2C(=O)[C@@H](NC(=O)CCN2CCN(CC(=O)NCc3ccc(CCOc4cc(-c5ccccc5O)nnc4N)cc3)CC2)C(C)(C)C)cc1: > 1000 nM

Exam item: Missing value: DC50, HiBit-BRG1 (Homo sapiens), entry Nc1nnc(-c2ccccc2O)cc1OCCc1ccc(CNCCNc2cccc3c2C(=O)N(C2CCC(=O)NC2=O)C3=O)cc1 (centres unmarked) [Compound 109, formic acid salt] . Fill in?
Marked response: > 1000 nM

* * *

Recorded Dmax for the following compounds
- tgt: HiBit-BRG1 (Homo sapiens)
- Construct: expressed in transfected cells
- measurement.description: HiBit-BRG1 cell-based degradation assay (Nano-Glo HiBiT Lytic Detection)
- conditions.used: HeLa cells expressing HiBit-BRG1 and LgBit, 24 h; read-out: BRG1 HiBit Degradation Maximum (%)

Study these solved cases before continuing.
Cc1ncsc1-c1ccc(CNC(=O)[C@@H]2C[C@@H](O)CN2C(=O)[C@@H](NC(=O)CCCCCCCCCCCCCC(=O)NCc2ccc(CCOc3cc(-c4ccccc4O)nnc3N)cc2)C(C)C)cc1: < 50%
Nc1nnc(-c2ccccc2O)cc1OCCc1ccc(CNC(=O)CCCCCCCCNc2ccc3c(c2)C(=O)N(C2CCC(=O)NC2=O)C3=O)cc1 (centres unmarked): < 50%
Cc1ncsc1-c1ccc([C@H](C)NC(=O)[C@@H]2C[C@@H](O)CN2C(=O)[C@@H](c2cc(OCCNCc3ccc(CCOc4cc(-c5ccccc5O)nnc4N)cc3)no2)C(C)C)cc1: > 75%
Cc1nc2cccc(NCCOCCOCCNC(=O)c3ccc(CCOc4cc(-c5ccccc5O)nnc4N)cc3)c2c(=O)n1C1CCC(=O)NC1=O (centres unmarked): < 50%

Okay, next one:
Exam item: Missing value: Dmax, HiBit-BRG1 (Homo sapiens), entry Cc1ncsc1-c1ccc(CNC(=O)[C@@H]2C[C@@H](O)CN2C(=O)[C@@H](NC(=O)CCN2CC(C3CCN(C(=O)c4ccc(CCOc5cc(-c6ccccc6O)nnc5N)cc4)CC3)C2)C(C)(C)C)cc1 . Fill in?
Marked response: < 50%

* * *

- tgt: HiBit-BRG1 (Homo sapiens, UniProt P51532)
- Construct: expressed in transfected cells
- measurement.description: HiBit-BRG1 cell-based degradation assay (Nano-Glo HiBiT Lytic Detection)
- conditions.used: HeLa cells expressing HiBit-BRG1 and LgBit, 24 h; read-out: BRG1 HiBit Degradation Maximum (%)
Recorded Dmax for the following compounds

Study these solved cases before continuing.
Nc1nnc(-c2ccccc2O)cc1OCCc1ccc(CNC(=O)CCCCNc2ccc3c(c2)CN(C2CCC(=O)NC2=O)C3=O)cc1 (centres unmarked): < 50%
Cc1ncsc1-c1ccc([C@H](C)NC(=O)[C@@H]2C[C@@H](O)CN2C(=O)[C@@H](NC(=O)CCN2CCC(OC3CCN(CCC(=O)NCc4ccc(CCOc5cc(-c6ccccc6O)nnc5N)cc4)CC3)CC2)C(C)(C)C)cc1: < 50%
Cc1ncsc1-c1ccc(CNC(=O)[C@@H]2C[C@@H](O)CN2C(=O)[C@@H](NC(=O)CCCCCCCCC(=O)NCc2ccc(CCNc3cc(-c4ccccc4O)nnc3N)cc2)C(C)(C)C)cc1: < 50%

Exam item: Which Dmax value belongs to Cc1ncsc1-c1ccc(CNC(=O)[C@@H]2C[C@@H](O)CN2C(=O)[C@@H](NC(=O)CCCCCCC(=O)NCc2ccc(CCOc3cc(-c4ccccc4O)nnc3N)cc2)C(C)(C)C)cc1 ?
Marked response: < 50%

Exam item: Which Dmax value belongs to Cc1ncsc1-c1ccc([C@H](C)NC(=O)[C@@H]2C[C@@H](O)CN2C(=O)[C@@H](c2cc(OCCN3C[C@@H]4CN(C(=O)c5ccc(CCOc6cc(-c7ccccc7O)nnc6N)cc5)C[C@@H]4C3)no2)C(C)C)cc1 ?
Marked response: > 75%

* * *

- tgt: HiBit-BRG1 (Homo sapiens, UniProt P51532)
- Construct: expressed in transfected cells
- measurement.description: HiBit-BRG1 cell-based degradation assay (Nano-Glo HiBiT Lytic Detection)
- conditions.used: HeLa cells expressing HiBit-BRG1 and LgBit, 24 h; read-out: BRG1 HiBit Degradation IC50
Structures can show the parent of a compound that is named as a salt.
property.label: DC50

Study these solved cases before continuing.
Cc1ncsc1-c1ccc(CNC(=O)[C@@H]2C[C@@H](O)CN2C(=O)[C@@H](NC(=O)CCCCCCCCCNC(=O)c2ccc(CCOc3cc(-c4ccccc4O)nnc3N)cc2)C(C)C)cc1 [Compound 170]: > 1 µM
Cc1ncsc1-c1ccc(CNC(=O)[C@@H]2C[C@@H](O)CN2C(=O)[C@@H](NC(=O)CCCCCCCCC(=O)NCc2ccc(CCOc3cc(-c4ccccc4O)nnc3N)cc2)C(C)(C)C)cc1 [Compound 138]: > 1 µM
Cc1ncsc1-c1ccc([C@H](C)NC(=O)[C@@H]2C[C@@H](O)CN2C(=O)[C@@H](c2cc(OCCN3CC4(C3)CN(CCC(=O)NCc3ccc(CCOc5cc(-c6ccccc6O)nnc5N)cc3)C4)no2)C(C)C)cc1 [Compound 192]: > 1 µM
Nc1nnc(-c2ccccc2O)cc1OCCc1ccc(CNCCN2CCN(c3cccc4c3C(=O)N(C3CCC(=O)NC3=O)C4=O)CC2=O)cc1 (centres unmarked) [Compound 153]: > 1 µM
Cc1ncsc1-c1ccc([C@H](C)NC(=O)[C@@H]2C[C@@H](O)CN2C(=O)[C@@H](c2cc(OCCNCc3ccc(CCOc4cc(-c5ccccc5O)nnc4N)cc3)no2)C(C)C)cc1 [Compound 205]: > 0.1 µM
Nc1nnc(-c2ccccc2O)cc1OCCc1ccc(CN2CC(CCCOc3cccc4c3C(=O)N(C3CCC(=O)NC3=O)C4=O)C2)cc1 (centres unmarked) [Compound 127]: > 1 µM
Cc1ncsc1-c1ccc(CNC(=O)[C@@H]2C[C@@H](O)CN2C(=O)[C@@H](NC(=O)CCCCN2CCN(CCOc3cc(N4[C@@H]5CC[C@H]4CN(c4cc(-c6ccccc6O)nnc4N)C5)ccn3)CC2)C(C)(C)C)cc1 [Compound 234]: > 1 µM
Cc1ncsc1-c1ccc(CNC(=O)[C@@H]2C[C@@H](O)CN2C(=O)[C@@H](NC(=O)CCCCCCCNC(=O)c2ccc(CCOc3cc(-c4ccccc4O)nnc3N)cc2)C(C)(C)C)cc1 [Compound 57]: > 1 µM

Exam item: Which DC50 value belongs to Cc1ncsc1-c1ccc(CNC(=O)[C@@H]2C[C@@H](O)CN2C(=O)[C@@H](NC(=O)CCCCCCCCCNC(=O)c2ccc(CCNc3cc(-c4ccccc4O)nnc3N)cc2)C(C)(C)C)cc1 [Compound 134] ?
Marked response: > 1 µM

Exam item: Which DC50 value belongs to Nc1nnc(-c2ccccc2O)cc1N1CCN(C(=O)C2CC2CNC(=O)COc2ccc3c(c2)C(=O)N(C2CCC(=O)NC2=O)C3=O)CC1 (centres unmarked) [Compound 78] ?
Marked response: > 1 µM

Exam item: Which DC50 value belongs to Cc1ncsc1-c1ccc(CNC(=O)[C@@H]2C[C@@H](O)CN2C(=O)[C@@H](NC(=O)CCCCCCCCCCCCCCCC(=O)NCc2ccc(CCN(C)c3cc(-c4ccccc4O)nnc3N)cc2)C(C)(C)C)cc1 [Compound 133] ?
Marked response: > 1 µM

Exam item: Which DC50 value belongs to Nc1nnc(-c2ccccc2O)cc1OCCc1ccc(CNC(=O)COc2cccc3c2C(=O)N(C2CCC(=O)NC2=O)C3=O)cc1 (centres unmarked) [Compound 62] ?
Marked response: > 0.1 µM

Exam item: Which DC50 value belongs to Cc1ncsc1-c1ccc(CNC(=O)[C@@H]2C[C@@H](O)CN2C(=O)[C@@H](NC(=O)CCCCCCCCCCCCCCC(=O)N(C)Cc2ccc(CCOc3cc(-c4ccccc4O)nnc3N)cc2)C(C)(C)C)cc1 [Compound 223] ?
Marked response: > 1 µM

Exam item: Which DC50 value belongs to Nc1nnc(-c2ccccc2O)cc1OCCc1ccc(CNCCN2CC3CC2CN3c2cccc3c2C(=O)N(C2CCC(=O)NC2=O)C3=O)cc1 (centres unmarked) [Compound 158] ?
Marked response: > 0.1 µM

Exam item: Which DC50 value belongs to CN(CCNC(=O)COc1cccc2c1C(=O)N(C1CCC(=O)NC1=O)C2=O)CCNC(=O)c1ccc(CCOc2cc(-c3ccccc3O)nnc2N)cc1 (centres unmarked) [Compound 58] ?
Marked response: > 1 µM

Exam item: Which DC50 value belongs to Cc1ncsc1-c1ccc(CNC(=O)[C@@H]2C[C@@H](O)CN2C(=O)[C@@H](NC(=O)CCN2CC3(CN(CCC(=O)NCc4ccc(CCOc5cc(-c6ccccc6O)nnc5N)cc4)C3)C2)C(C)(C)C)cc1 [Compound 188] ?
Marked response: > 1 µM

Exam item: Which DC50 value belongs to Cc1ncsc1-c1ccc(CNC(=O)[C@@H]2C[C@@H](O)CN2C(=O)[C@@H](NC(=O)CCCC(=O)NCc2ccc(CCOc3cc(-c4ccccc4O)nnc3N)cc2)C(C)(C)C)cc1 [Compound 34] ?
Marked response: > 1 µM

Exam item: Which DC50 value belongs to Nc1nnc(-c2cc(F)cc(Cl)c2O)cc1OCCc1ccc(CNCCCCCOc2cccc3c2C(=O)N(C2CCC(=O)NC2=O)C3=O)cc1 (centres unmarked) [Compound 119, formic acid salt] ?
Marked response: > 1 µM

Exam item: Which DC50 value belongs to Nc1nnc(-c2ccccc2O)cc1N1CCN(CCNC(=O)CCCCCCCOc2cccc3c2C(=O)N(C2CCC(=O)NC2=O)C3=O)CC1 (centres unmarked) [Compound 90] ?
Marked response: > 1 µM

Exam item: Which DC50 value belongs to Cc1ncsc1-c1ccc(CNC(=O)[C@@H]2C[C@@H](O)CN2C(=O)[C@@H](NC(=O)CCCCCCC(=O)NCc2ccc(CCOc3cc(-c4ccccc4O)nnc3N)cc2)C(C)(C)C)cc1 [Compound 30] ?
Marked response: > 1 µM

The reported numbers originate from patent US20230150974A1.
